- system.name: T1, Fel D1 (Felis catus, UniProt P30438)
- T1 construct: made in house; host or cells: chemically synthesized peptides
- method: ELISA binding assay of anti-Fel d1 VHH clones on Fel D1 epitopes
- Design: species or system cat
- stated.conditions: Epitope Recognized AKMTEEDKENALS (SEQ ID NO: 60)
quantity.kind: EC50 (µg/mL)
The reply should contain only the number, in µg/mL.

Please give the documented EC50 of SDAB22110-3-2-H08: anti-Fel d1 VHH clone, SEQ ID NO: 53 (protein) VHH: QVQLVESGGGLVQPGGSLRLSCAASGFTFSRKGMSWYRQVPGKEREWVARIYSTGEKTDYADSVKGRFTISRDNAKNMVYLDMNSLKPEDTAVYYCKAWGYEYWNQGTQVTVSS
5.024

Please give the documented EC50 of SDAB22110-4-3-E05: anti-Fel d1 VHH clone, SEQ ID NO: 55 (protein) VHH: QVQLVESGGGLVQPGGSLRLSCVGSGFTFSQYAMRWYRQVPGKARELVAAISRSGDFMYYADSVKGRFTISRDNVKSAVILQMNSLKPEDTAVYYCYGQATISDTLWGQGTQVTVSS
1.719
